B1: Ankyrin-3, residues 4094 to 4171; numbered along this chain, Q12955 (parent)
chain: MAIVADHLGLSWTELARELNFSVDEINQIRVENPNSLISQSFMLLKKWVTRDGKNATTDALTSVLTKINRIDIVTLLE

variants of: B1; assay: abundance fitness (aPCA) (normalised: wild type 0, dead -1); higher = more abundant; growth selection in yeast, the domain comes from the species named; details: Homo sapiens
Label rule, in plain words: abundance fitness of -0.3 and up is 1, under -0.3 is 0.

Worked cases, answers included:
[
  {
    "mutation_spec": "H7I",
    "group_label": 0
  },
  {
    "mutation_spec": "S39Y",
    "group_label": 0
  },
  {
    "mutation_spec": "V31W",
    "group_label": 1
  },
  {
    "mutation_spec": "E32K",
    "group_label": 0
  },
  {
    "mutation_spec": "S39F",
    "group_label": 0
  },
  {
    "mutation_spec": "I3D",
    "group_label": 0
  }
]

Given E25T , state whether its abundance fitness is at least -0.3.
0

Decide: is the reported value of abundance fitness for A56N equal to or greater than -0.3?
0

Does the reported abundance fitness for V64W fall at or above the -0.3 mark?
0

Hi, just wondering whether D52K shows abundance fitness of -0.3 or higher.
0

Tell me whether abundance fitness is at least -0.3 here: L65K
0

hey, is abundance fitness for this one >= -0.3? E32H
0

Does T62K have a reported abundance fitness of at least -0.3?
1

Reported abundance fitness reaches at least -0.3 for G53R ?
0

Assess whether reported abundance fitness for M1T sits at -0.3 or higher.
0

Check this variant for abundance fitness at or above -0.3: N55E
1

Assess whether reported abundance fitness for V23E sits at -0.3 or higher.
1

Could you verify whether the entry R51P shows abundance fitness of no less than -0.3?
0

This collection of values is drawn from the Human Domainome abundance scans (Beltran et al. 2025).
